Each entry below carries its reported growth inhibition.
# protocol_text: NCI Yeast Anticancer Drug Screen. Data for the cln2 rad14 strain (AID 165);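 also: 0% = growth equal to vehicle treated cultures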
# cond: S. cerevisiae cln2 rad14 strain, at 50.0 µM, hits give high values
This is part of a sample that, as a whole, favours compounds with a hit. Of some 79,000 tested, about 15% had one in any assay. The source made the active and inactive calls. Rule as the data show it: active = growth inhibition above about 70%; inactive = the rest.
parameter_measured: growth inhibition

> print(dat)
                                    molecule             result
 1                     CCCOC(=O)C#CC(=O)OCCC     93.6% (active)
 2  O=[N+]([O-])c1ccc(Sc2ccsc2)c([N+](=O)[O-])c1   31.8% (inactive)
 3  CC1(C)CCN(CCOC(=O)C(c2ccccc2)C2C=CCCC2)C1 (stereo not drawn)     73.7% (active)
 4  O=C(CC(C[N+](=O)[O-])c1ccc2c(c1)OCO2)c1ccccc1 (stereo not drawn)   4.65% (inactive)
 5  N#CCCN(CCC#N)c1ccc(C(Sc2ccccc2)C(NC(=O)c2cc([N+](=O)[O-])ccc2Cl)C(=O)Sc2ccccc2)cc1 (stereo not drawn)   51.6% (inactive)
 6   N#C/C(=C/c1ccc([N+](=O)[O-])o1)c1ccccc1   32.8% (inactive)
 7               O=C(O)C/C(=C\c1ccco1)C(=O)O     38% (inactive)
 8  O=C(Oc1c(Cl)c(Cl)c(Cl)c(Cl)c1Cl)c1ccc(Cl)cc1     99.7% (active)
 9                   CCCCCCCCCCCCSC(=NCC)NCC     99.1% (active)
10  CCCC(C(=O)OCCNC1CCCCC1)c1ccccc1 (stereo not drawn)   35.1% (inactive)
11  C/C(=N/NC(=O)c1ccccc1S(N)(=O)=O)C(CN1CCCCC1)C(C1=C(O)C2C=CC=CC2OC1=O)c1ccccc1 (stereo not drawn)     88.8% (active)
12        C(/Cc1ccc2c(c1)OCO2)=N\NC1=NCCCCN1   28.8% (inactive)
13  COC1=CC(=O)c2c(O)c3c(c(O)c2C1=O)C=C(C)OC3O (stereo not drawn)   47.1% (inactive)
14  CNCCCNc1c2cc(OC)ccc2nc2cccc([N+](=O)[O-])c12     85.3% (active)
15          Cc1ccc(NC(=S)SCc2ccc(Cl)cc2)cc1C     86.8% (active)
16       O=C1NC(=O)C(Cc2ccccc2)(Cc2ccccc2)S1     99.2% (active)
17          COc1cccc(CCCNC(=O)Cc2ccccc2CO)c1    7.7% (inactive)
18  O=C(N/N=C/c1ccc2c(c1)OCO2)c1ccc([N+](=O)[O-])cc1   30.7% (inactive)
19  O=S1(=O)CCc2ccccc2C(Br)C1Br (stereo not drawn)     98.3% (active)
20  O=[N+]([O-])c1ccccc1Oc1ccc([N+](=O)[O-])c(C(F)(F)F)c1   45.9% (inactive)
21  COC(=O)c1nnn(-c2cccc(C(F)(F)F)c2)c1C(=O)c1ccc(Cl)c(Cl)c1   59.2% (inactive)
22  O=S(=O)(Nc1ccccc1)c1ccccc1C(O)(c1ccccc1)c1ccccc1     85.2% (active)
23  O=C(O)C1C2CC3CC(C2)CC1C3 (stereo not drawn)  -67.8% (inactive)
